Reference for the values: PubChem BioAssay (NCI)

- Test system: A498 renal
- test.protocol: NCI-60 one-dose screen, 48 h (100 = growth as untreated, 0 = no growth, -100 = all killed)
- measurement.conditions: 10 µM
- Protocol: Growth inhibition of the A498 human tumor cell line is measured as a screen for anti-cancer activity. Cells are grown in 96 well plates and exposed to the test compound for 48 hours. Compounds are tested at a single concentration, which is 10^-5 M for most compounds. The reported endpoint is percent growth (GI% or GIPRCNT), where numbers from 0 - 100% represent growth inhibition, and numbers from -100% - 0 represent cell death. For example, a value of 40 represents 60% growth inhibition. […]
About 83,000 compounds went through this panel and 20% of them were active in at least one assay; those are over-represented in the sample as a whole. Active and inactive are the calls of the source. The calls were made as follows: active = growth percent below 10; inactive = the rest.
# reported growth; entries follow

molecule: C=CC[Se]C(=O)c1ccc(C(=O)[Se]CC=C)s1
growth: -5.42% (active)
//
molecule: O=C(/C=C/c1ccc(Cl)cc1Cl)c1nc2ccccc2n1Cc1ccc(Br)cc1
growth: 103% (inactive)
//
molecule: C[C@H]1[C@@H](Oc2ccc(-c3cn(-c4ccnc5cc(Cl)ccc45)nn3)cc2)O[C@@H]2OC3(C)CC[C@H]4[C@H](C)CC[C@@H]1[C@@]24OO3
growth: 95% (inactive)
//
molecule: CC1=C(CCC=NNC(N)=O)C2=C(C)C3(CC3)[C@@](C)(O)C(=O)C2=C1
growth: -67.2% (active)
//
molecule: C[C@H]1[C@H](OC(=O)CCC(=O)N(CCCc2cn(-c3ccc(C#N)cc3)nn2)CCNc2ccnc3cc(Cl)ccc23)O[C@@H]2OC3(C)CC[C@H]4[C@H](C)CC[C@@H]1[C@@]24OO3
growth: 110% (inactive)
//
molecule: CC1=C(C=O)C2=C(C)C3(CC3)[C@@](C)(O)C(=O)C2=C1
growth: -30.3% (active)
//
molecule: C[C@H]1[C@H](OC(=O)CCC(=O)N(CCCc2cn(-c3ccc(CN4CCOCC4)cc3)nn2)CCNc2ccnc3cc(Cl)ccc23)O[C@@H]2OC3(C)CC[C@H]4[C@H](C)CC[C@@H]1[C@@]24OO3
growth: 93.6% (inactive)
//
molecule: COCCOCCOCCOc1ccc(-n2cc(-c3ccc(O[C@H]4O[C@@H]5OC6(C)CC[C@H]7[C@H](C)CC[C@@H]([C@H]4C)[C@@]57OO6)cc3)nn2)cc1
growth: 93.8% (inactive)
//
molecule: CCOP(=O)(CC(F)(F)C(F)(F)F)OCC
growth: 126% (inactive)
//
molecule: O=C(/C=C/c1ccco1)c1nc2ccccc2n1Cc1ccc(Br)cc1
growth: 105% (inactive)
//
molecule: O=C(NCCCCC(c1ccc(F)cc1)c1ccc(F)cc1)Nc1ccc([N+](=O)[O-])c(C(F)(F)F)c1
growth: -9.75% (active)
//
molecule: CC12CCC3(CCC(=O)NCCCNc4ccnc5cc(Cl)ccc45)[C@@](C)(OO[C@]3(C)O1)O2
growth: 85.3% (inactive)
//
molecule: COc1cc2cc(C(=O)N3C[C@@H](CCl)c4c3cc(OC(=O)N3CCN(C(=O)CCC(=O)N5CCN(C)CC5)[C@@H]5CSSC[C@@H]53)c3ccccc43)[nH]c2c(OC)c1OC
growth: -10.8% (active)
//
molecule: O=C(/C=C/c1ccco1)c1nc2ccccc2n1Cc1ccc(F)cc1
growth: 93.4% (inactive)
//
molecule: CC12OOC(C)(OO1)C2CCC(=O)NCCCNc1ccnc2cc(Cl)ccc12 (configuration not stated)
growth: 114% (inactive)
//
molecule: COc1ccc(OC)c(/C=C/C(=O)c2nc3ccccc3n2Cc2ccc(F)cc2)c1
growth: 116% (inactive)
//
molecule: CC(=O)Oc1ccccc1C(=O)NC([Se])=NC1CCCCC1
growth: 16.3% (inactive)
//
molecule: CCOP(=O)(OCC)C(NC(C)=O)C(=O)SCCN (configuration not stated)
growth: 91.7% (inactive)
//
molecule: CN(C)CCc1cn(C2CCC2)c2cccc(O)c12
growth: 95% (inactive)
//
molecule: COCCOCCOCCOc1ccc(-n2cc(CCCN(CCNc3ccnc4cc(Cl)ccc34)C(=O)CCC(=O)O[C@@H]3O[C@@H]4OC5(C)CC[C@H]6[C@H](C)CC[C@@H]([C@H]3C)[C@@]46OO5)nn2)cc1
growth: 94.9% (inactive)
//
molecule: O=C(NC([Se])=NC1CCCCC1)c1ccccc1
growth: 73.3% (inactive)
//
molecule: O=C(/C=C/c1ccccc1Cl)c1nc2ccccc2n1Cc1ccc(F)cc1
growth: 62.5% (inactive)
//
molecule: CC[C@@]12CC(C(=O)OC)=C3Nc4cc5c(cc4[C@@]34CCN(C[C@H]3O[C@H]31)[C@@H]24)[C@@H]1[C@H](O5)[C@@H](O)[C@@]2(CC)CC(C(=O)OC)=C3Nc4cc(OC)ccc4[C@@]34CCN1[C@@H]24
growth: -15.3% (active)
//
molecule: CC1=C(COCCOC(=O)c2ccc(S(=O)(=O)F)cc2)C2=C(C)C3(CC3)[C@@](C)(O)C(=O)C2=C1
growth: -16.9% (active)
//
molecule: COC(=O)C[C@](O)(CCCC(C)C)C(=O)O[C@H]1C(OC)=C[C@@]23CCCN2CCc2cc4c(cc2[C@@H]13)OCO4
growth: -17.2% (active)
//
molecule: COC(=O)CCn1c(-c2ccc(-n3cc(-c4ccc(O[C@H]5O[C@@H]6OC7(C)CC[C@H]8[C@H](C)CC[C@@H]([C@H]5C)[C@@]68OO7)cc4)nn3)cc2)nc2ccccc21
growth: 74.4% (inactive)
//
molecule: CC[C@]12C=CCN3CC[C@@]4(c5ccc(OC)cc5N(C)[C@H]4[C@@](O)(C(=O)OC)[C@@H]1OC(=O)CCC[P+](c1ccc(F)cc1)(c1ccc(F)cc1)c1ccc(F)cc1)[C@@H]32
growth: 101% (inactive)
//
molecule: CC(=O)Oc1ccccc1C(=O)[Se]C(=NC(C)C)NC(C)C
growth: -24.8% (active)
//
molecule: COP(=O)(CC(F)(F)C(F)(F)F)OC
growth: 131% (inactive)
//
molecule: N#C[Se]CC(=O)Nc1cccc(C(F)(F)F)c1
growth: -69.6% (active)
//
molecule: CC(C)N=C([Se])NC(=O)c1ccccc1
growth: -29.4% (active)
//
molecule: COC(=O)c1ccc(-n2cc(CCCN(CCNc3ccnc4cc(Cl)ccc34)C(=O)CCC(=O)O[C@@H]3O[C@@H]4OC5(C)CC[C@H]6[C@H](C)CC[C@@H]([C@H]3C)[C@@]46OO5)nn2)cc1
growth: 100% (inactive)
